tested on: DU-145 prostate; experiment: NCI tumour cell line growth inhibition, 48 h
TGI: recorded values
measure: TGI

- O=C(NC1C/C(=N/O)c2c(Br)sc(Br)c21)C(F)(F)F (stereo not given): > 100 µM
- CCOC(=O)N1CCC2(CC1)C[C@@](C(C)=O)(c1ccccc1)C(C)O2 (stereo not given in full): > 100 µM
- COc1ccc(/C=C/c2ccnc3ccccc23)cc1OC: 26.6 µM
- Nc1ccn(C2CCC(COP(=O)(O)OCC(O)COP(=O)(O)OCC3OC(n4cc(F)c(=O)[nH]c4=O)CC3O)O2)c(=O)n1 (stereo not given): > 100 µM
- O=c1c2c3c(sc2nc2n1NC=NN2)CCCC3: > 90.4 µM
- CCCCCCCCCCCCOC1C(COCCN2CCCCC2)OC2OC(C)(C)OC21 (stereo not given): 21.6 µM
- O=S(=O)(c1ccccc1)c1ccc(-c2nc(-c3ccc4c(c3)Sc3ccccc3S4)cs2)cc1: > 100 µM
- CCN1C(=O)N(CC)C2C1N=C(SC)N2/N=C/C=C/c1ccccc1OC (stereo not given): > 45.3 µM
- COc1ccccc1C(=O)OCC1CCCN2CCCCC12 (stereo not given): > 100 µM
- CCN(CC)CCC1CCCCN1CC(=O)N1c2cc(Cl)ccc2NC(=O)CC1C (stereo not given): > 100 µM

* * *

Attribute: TGI
test system: HOP-92 NSCLC; assay: NCI tumour cell line growth inhibition, 48 h
measure: TGI (µM)

- Cc1ccnc(Nc2[nH]c(C(=O)c3ccc(Cl)cc3)c(N)c2C(=S)Nc2ccccc2)c1: 35.3
- Fc1ccc(Nc2nc(Nc3ccc(-c4nc5ccccc5[nH]4)cc3)c3cn[nH]c3n2)cc1: 3.19
- Cn1c(I)c(C#C[Si](C)(C)C)c(=O)[nH]c1=O: 2.53
- Cc1cc(O)c2c(c1)C(C1c3cccc(O)c3C(=O)c3c(O)cc(C)cc31)c1cccc(O)c1C2=O (stereo not given): 0.706

* * *

system: MCF7 breast; test: NCI tumour cell line growth inhibition, 48 h
measure: TGI

• C(=C/c1nnnn1-c1ccccc1)/Nc1ccccc1 = 64.8 µM
• C(=N\Nc1ccc2ccccc2n1)/c1ccccn1 = > 100 µM
• CN1CCN(c2ccc(NC3=CC(=O)c4ncncc4C3=O)cc2)CC1 = 0.405 µM
• O=C1Nc2ccc(Br)cc2/C1=N/N1C(=O)C(=O)N(C2CCCCC2)C1=S = 15.6 µM
• COC(=O)c1cc2cc(/C=C3/SC(=S)N(N(C(C)=O)C(C)=O)C3=O)oc2n1Cc1ccccc1 = > 100 µM
• Nc1ccn(C2CCC(COP(=O)(O)OCC(O)COP(=O)(O)OCC3OC(n4cc(F)c(=O)[nH]c4=O)CC3O)O2)c(=O)n1 (stereo unspecified) = > 100 µM

* * *

tested on: T-47D breast; test: NCI tumour cell line growth inhibition, 48 h
Listed next: entries and their corresponding TGI.
measure: TGI (µM)

• CSc1ccc2c(c1)c(CCN)c(C)n2Cc1ccccc1Cl = 3.09
• COc1ccc(/C=C/c2ccnc3ccccc23)cc1OC = 74.5
• O=C1Nc2ccc(Br)cc2/C1=N/N1C(=O)C(=O)N(C2CCCCC2)C1=S = 9.95
• COc1ccc2nc3ccccc3c(NCCCCN(CCCl)CCCl)c2c1 = 13.8
• COC(=O)C1(Cc2ccccc2)Cc2cc3c(cc2C1O)CCC3 (configuration not stated) = 62.9
